Biological target: T1, human Trop-2-hFc (human, UniProt P09758 27-274)
T1 construct: also called huTrop-2; human Trop-2 human Fc fusion protein; not shown: human Fc
T1 sequence: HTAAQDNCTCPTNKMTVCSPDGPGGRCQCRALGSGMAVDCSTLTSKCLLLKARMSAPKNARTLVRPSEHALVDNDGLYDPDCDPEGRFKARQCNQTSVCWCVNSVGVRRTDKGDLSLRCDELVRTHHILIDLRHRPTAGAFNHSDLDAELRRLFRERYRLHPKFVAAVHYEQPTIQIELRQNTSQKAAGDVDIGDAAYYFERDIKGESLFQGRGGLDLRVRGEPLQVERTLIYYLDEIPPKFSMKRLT
Test: SPR (Biacore T200), human Trop-2-hFc captured by anti-human Fc, Fab as analyte
ASSAY ENDPOINT: koff (s⁻¹)
Provide the reading as a plain figure in s⁻¹.

Qu. So what does the record say about koff for h7E6_L recombinant Fab fragment (Fab, V domains shown, Recombinant Fab) VH: QVQLQESGPGLVKPSETLSLTCTVSGGSISSYGVHWIRQPPGKGLEWIGVIWTGGSTDYNSALMSRVTISVDTSKNQFSLKLSSVTAADTAVYYCARDGDYDRYTMDYWGQGTLVTVSS VL: DIVMTQSPDSLAVSLGERATINCRASKSVSTSLYSYMHWYQQKPGQPPKLLIYLASNLESGVPDRFSGSGSGTDFTLTISSLQAEDVAVYYCQHSRELPYTFGQGTKLEIK ?
Ans. 0.00015
